The reported numbers originate from PubChem BioAssay (Tox21).

Experiment: qHTS assay to identify aromatase inhibitors - cell viability counter screen (AID 743084);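 further: cells stimulated with testosterone during compound exposure; nearly all actives have a fitted effect of over 55% in size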
Details: MCF-7 aro ERE viability, CellTiter-Fluor, 24 h; series mostly up to 70.3 µM
Records with an inconclusive call do not appear. Calls of active or inactive are those of the source. The call rests on the fitted dose curve; in most records, active means well fitted cell-killing curve with a large enough effect in the repeat runs; inconclusive means weak or mixed curves, or effect the other way; inactive means no such curve, though single readings can be large or run the other way.
Labels: Y (active), N (inactive)

>  <compound>
CC(C)=CC1C(C(=O)OC(C#N)c2cccc(Oc3ccccc3)c2)C1(C)C (stereo unspecified)

>  <class_name>
N

$$$$
>  <compound>
COP(=S)(OC)Oc1ccc([N+](=O)[O-])c(C)c1

>  <class_name>
N

$$$$
>  <compound>
c1cc[n+]2c(c1)-c1cccc[n+]1CC2

>  <class_name>
N

$$$$
>  <compound>
C=CC(=C)C

>  <class_name>
N

$$$$
>  <compound>
COc1ccc2c(c1OC)C(=O)O[C@@H]2[C@H]1c2cc3c(cc2CCN1C)OCO3

>  <class_name>
Y

$$$$
>  <compound>
C=Cc1cccc(CCl)c1

>  <class_name>
N

$$$$

====

Assay: qHTS assay to identify small molecule antagonists of the peroxisome proliferator-activated receptor delta (PPARd) signaling pathway - cell viability counter screen (AID 743213); further: nearly all actives have a fitted effect of over 50% in size
Conditions: PPARd-bla HEK293H viability, CellTiter-Glo luminescence, 17 h; series mostly up to 62 µM
Inconclusive results are not listed. Active and inactive are the calls of the source. The call rests on the fitted dose curve; in most records, active means well fitted cell-killing curve with a large enough effect in the repeat runs; inconclusive means weak or mixed curves; inactive means no such curve, though single readings can be large or run the other way.
Labels: active, inactive

>  <compound>
CCOP(=S)(OCC)Oc1cc(C)nc(N(CC)CC)n1

>  <class_name>
inactive

$$$$
>  <compound>
CC(Cc1ccc(OCC(=O)O)cc1)NCC(O)c1csc(C(F)(F)F)n1 (stereo not given)

>  <class_name>
inactive

$$$$
>  <compound>
CCCCn1cc[n+](C)c1.[Cl][Fe-]([Cl])([Cl])[Cl]

>  <class_name>
inactive

$$$$
>  <compound>
CCOP(=S)(NC(C)C)Oc1ccccc1C(=O)OC(C)C (stereo not given)

>  <class_name>
inactive

$$$$
>  <compound>
COc1ccc2[nH]cc(CCN(C(C)C)C(C)C)c2c1

>  <class_name>
inactive

$$$$
>  <compound>
CC(=O)[O-].CC(=O)[O-].CC(=O)[O-].[Cr+3]

>  <class_name>
inactive

$$$$
>  <compound>
CCc1cccc(C)c1N(C(=O)CCl)[C@@H](C)COC

>  <class_name>
inactive

$$$$
>  <compound>
CCNS(=O)(=O)C(F)(F)C(F)(F)C(F)(F)C(F)(F)C(F)(F)C(F)(F)C(F)(F)C(F)(F)F

>  <class_name>
inactive

$$$$
>  <compound>
CCCCCCCCCCCCCCn1cc[n+](C)c1

>  <class_name>
active

$$$$
>  <compound>
CCOP(=O)(Sc1ccccc1)Sc1ccccc1

>  <class_name>
inactive

$$$$
>  <compound>
Oc1cc(Cl)cc(Cl)c1

>  <class_name>
inactive

$$$$
>  <compound>
CNC(=O)O/N=C(\C)C(C)S(C)(=O)=O (stereo not given)

>  <class_name>
inactive

$$$$
>  <compound>
CNC(C)(C)Cc1ccccc1

>  <class_name>
inactive

$$$$
>  <compound>
N#CSCc1ccccc1

>  <class_name>
inactive

$$$$
>  <compound>
CCCCN(CCCC)C(=S)[S-].CCCCN(CCCC)C(=S)[S-].[Ni+2]

>  <class_name>
inactive

$$$$
>  <compound>
CC1CN1 (stereo not given)

>  <class_name>
inactive

$$$$
>  <compound>
CCC[CH2][Sn]([CH2]CCC)([CH2]CCC)[O][Sn]([CH2]CCC)([CH2]CCC)[CH2]CCC

>  <class_name>
active

$$$$
>  <compound>
CC(Cc1ccc2c(c1)OCO2)NO (stereo not given)

>  <class_name>
inactive

$$$$
>  <compound>
Cc1ccn2nc(S(=O)(=O)Nc3c(F)cccc3F)nc2n1

>  <class_name>
inactive

$$$$
>  <compound>
CCn1cc[n+](C)c1 (tested in a mixture with another compound)

>  <class_name>
inactive

$$$$
>  <compound>
CCC1(CC)C(=O)N=C(O)NC1=O

>  <class_name>
inactive

$$$$
>  <compound>
c1ccc(Nc2ccc(Nc3ccccc3)cc2)cc1

>  <class_name>
inactive

$$$$
>  <compound>
C=Cc1cccc(CCl)c1

>  <class_name>
inactive

$$$$
>  <compound>
[F][Sn]([c]1ccccc1)([c]1ccccc1)[c]1ccccc1

>  <class_name>
active

$$$$
>  <compound>
CN1[C@@H]2CC[C@H]1CC(O)C2 (stereo not given in full)

>  <class_name>
inactive

$$$$
>  <compound>
CC(C)C(Nc1ccc(C(F)(F)F)cc1Cl)C(=O)OC(C#N)c1cccc(Oc2ccccc2)c1 (stereo not given)

>  <class_name>
inactive

$$$$
>  <compound>
CC[C@]1(O)CC[C@H]2[C@@H]3CCC4=CCCC[C@@H]4[C@H]3CC[C@@]21C

>  <class_name>
inactive

$$$$
>  <compound>
COCCC#N

>  <class_name>
inactive

$$$$
>  <compound>
COc1ccc(Cc2nccc3cc(OC)c(OC)cc23)cc1OC

>  <class_name>
inactive

$$$$
>  <compound>
CC(Cl)CCl (stereo not given)

>  <class_name>
inactive

$$$$
>  <compound>
O.O.O.O.O.O.O=S(=O)([O-])[O-].[Ni+2]

>  <class_name>
inactive

$$$$
>  <compound>
ClC1(Cl)C2(Cl)C3(Cl)C4(Cl)C(Cl)(Cl)C5(Cl)C3(Cl)C1(Cl)C5(Cl)C24Cl (stereo not given)

>  <class_name>
inactive

$$$$
>  <compound>
COc1ccc2c3c1O[C@H]1[C@H](O)CC[C@H]4[C@@H](C2)N(C)CC[C@@]341

>  <class_name>
inactive

$$$$
>  <compound>
O=C(Cl)c1ccccc1F

>  <class_name>
inactive

$$$$
>  <compound>
C#CCC1=C(C)C(OC(=O)C2C(C=C(C)C)C2(C)C)CC1=O (stereo not given)

>  <class_name>
inactive

$$$$
>  <compound>
O=C1C2(Cl)C3(Cl)C4(Cl)C(Cl)(Cl)C5(Cl)C3(Cl)C1(Cl)C5(Cl)C24Cl (stereo not given)

>  <class_name>
active

$$$$
>  <compound>
CCC1COC(Cn2cncn2)(c2ccc(Cl)cc2Cl)O1 (stereo not given)

>  <class_name>
inactive

$$$$
>  <compound>
C[C@]12C/C(=C/O)C(=O)C[C@@H]1CC[C@@H]1[C@@H]2CC[C@@]2(C)[C@H]1CC[C@]2(C)O

>  <class_name>
inactive

$$$$
>  <compound>
N#CCCl

>  <class_name>
inactive

$$$$
>  <compound>
CC(C)=CCN1CC[C@@]2(C)c3cc(O)ccc3C[C@@H]1[C@@H]2C

>  <class_name>
inactive

$$$$
